# measurement-target: T1, EH domain of human γ-synergin, longest construct (residues 279–388) (human, UniProt Q9UMZ2 279-388)
# T1 chain: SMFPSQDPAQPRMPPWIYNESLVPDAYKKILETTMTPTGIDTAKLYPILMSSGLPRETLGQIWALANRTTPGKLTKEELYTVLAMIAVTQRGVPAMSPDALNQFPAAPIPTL
# assay-summary: ITC
Ends that are not written are not given here.
attribute-measured: Kd (µM)
Quick note: give the figure in µM, leave out the unit.

Kindly note the recorded Kd for GLDEYNPFSDSRT-NH2 [peptide C, SCAMP1 derived peptide with a single NPF-repeat] , which is 90

Kindly note the recorded Kd for SDFDSNPFADPDLNY-NH2 [peptide A, SCAMP1 derived peptide with a single NPF-repeat] , which is 250

Kindly note the recorded Kd for ADPDLNNPFKDPSVTY-NH2 [peptide B, SCAMP1 derived peptide with a single NPF-repeat] , which is 140
